Kindly state growth inhibition for each of the entries shown.
- PROTOCOL SUMMARY: NCI Yeast Anticancer Drug Screen. Data for the sgs1 mgt1 strain (AID 161);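 note: 0% = growth of cultures given vehicle only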
- RUN PARAMETERS: S. cerevisiae sgs1 mgt1 strain, at 50.0 µM (retest, dose inferred, filed as 5.0), active compounds read high
This is part of a sample that, as a whole, favours compounds with a hit. Of some 79,000 tested, about 15% had one in any assay.
Give the value in % but do not write % after it.

Memo: `O=c1[nH]c(C(F)(F)F)c(F)c(=O)[nH]1` , reported growth inhibition: 27

Memo: `N#CSCC(=O)c1ccc2ccccc2c1` , reported growth inhibition: 99

Memo: `COc1ccc(-c2nc(C)[nH]c(=O)c2Cc2c(O)ccc3ccccc23)cc1` , reported growth inhibition: 8

Memo: `OCc1c2c(cc3c1CC1(C3)Cc3cc4c(c(CO)c3C1)CCC4)CCC2` , reported growth inhibition: 98

Memo: `COc1ccc(-c2cn(-c3ccccc3)c3ncnc(N)c23)cc1` , reported growth inhibition: 52

Memo: `CC(=O)OCCCCCCCCCCCCCCO` , reported growth inhibition: 99

Memo: C=C1CC(O)C2C(C[Se]c3ccccc3)C(=O)O[C@@H]2C2C(=C)[C@@H](O)CC12 (stereo partly specified) , reported growth inhibition: 43

Memo: `CCCCOC(=O)c1nc(N(CC2CCCCC2)C(=O)NC)sc1NC(=O)NC` , reported growth inhibition: 97

Memo: Cc1[nH]c2ccccc2c1C1=CC2(C)Nc3ccccc3C2C(C)(C)C1 (stereo unspecified) , reported growth inhibition: 23

Memo: `Nc1cc2c(cc1/C=C(\C(=O)O)c1ccccc1)OCO2` , reported growth inhibition: -8

Memo: `O=C(c1ccccc1)c1[nH]c2ccccc2c(=O)c1-c1ccc([N+](=O)[O-])cc1` , reported growth inhibition: 98

Memo: `CS/C(=N\C(=S)Nc1ccccc1)Nc1ccccc1` , reported growth inhibition: 97

Memo: O=C1CC(c2ccccc2Cl)C(c2ccccc2Cl)C1 (stereo unspecified) , reported growth inhibition: 96

Memo: `O=c1c(O)cc2c(O)oc3c(=O)c(O)c(O)c4c(O)oc1c2c43` , reported growth inhibition: 90

Memo: `Cc1ccc(NC(=O)Oc2ccc(OC(=O)Cc3ccccc3)cc2)cc1NC(=O)Oc1ccc(OC(=O)Cc2ccccc2)cc1` , reported growth inhibition: 89

Memo: CC(C)(C)C(=O)CC(Cc1nccc2ccccc12)c1ccco1 (stereo unspecified) , reported growth inhibition: 97

---

- PROTOCOL SUMMARY: NCI Yeast Anticancer Drug Screen. Data for the rad50 strain (AID 155);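 note: 0% = growth of vehicle-only cultures of the same strain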
- RUN PARAMETERS: S. cerevisiae rad50 strain growth inhibition; at 50.0 µM (retest, dose inferred, filed as 5.0)
The panel holds about 79,000 compounds, 15% with a hit somewhere; the sample as a whole holds those more often. The source made the active and inactive calls. No stated cut-off is given here; in the data, active means growth inhibition above about 70%; inactive means the rest.
Respond with a class label; see active, inactive

// return assay outcome for COc1cccc2c1C(=O)c1c(O)c3c(c(O)c1C2=O)C[C@@](O)(/C(C)=N/NC(N)=S)C[C@@H]3OC1CC(N)C(O)C(C)O1 (stereo partly specified)
active

// return assay outcome for `COc1ccc(Oc2cc3c[n+](C)ccc3cc2OC)cc1`
active

// return assay outcome for `COc1ccc2c(c1)CCc1c(CO)c(COC(=O)NC(C)C)n(C)c1-2`
active

// return assay outcome for `Cc1[nH]nc(C(=O)N/N=C/c2ccccc2Cl)c1N=NN(C)C`
active

// return assay outcome for CC(C)/C=C1\CCC(CN2CCOCC2)C1=O (stereo unspecified)
inactive

// return assay outcome for O=C1c2cccc(O)c2C(=O)c2c(OC3OC(CO)C(O)C(O)C3O)cccc21 (stereo unspecified)
inactive

// return assay outcome for CC(/C=C/NNC1=NC(c2ccccc2)C(c2ccccc2)=NN1)Sc1ccccc1N (stereo unspecified)
inactive

// return assay outcome for `O=c1cccccc1[O-].O=c1cccccc1[O-].O=c1cccccc1[O-].[La+3]`
active

// return assay outcome for `CCSc1c2ccccc2nc2c(OC)ccc(OC)c12`
active

// return assay outcome for `Cc1c(N=Nc2cccc(F)c2)c(-c2ccccc2)nn1C(N)=S`
active

// return assay outcome for CC(C)c1ccc2c(c1)CCC1C(C)(CNC(=O)S)CCCC21C.[Zn+2] (stereo unspecified)
inactive

// return assay outcome for `CCOC(=O)Oc1ccc(C)cc1[N+](=O)[O-]`
inactive

// return assay outcome for `CCOC(=O)/C(C#N)=C/c1coc2cc(C)cc(C)c2c1=O`
active

// return assay outcome for `O=Cc1[nH]c(=S)[nH]c(=O)c1Cc1cccc2ccccc12`
active

// return assay outcome for CCCC(C)OC(=O)Nc1cccc(Cl)c1 (stereo unspecified)
inactive

// return assay outcome for `O=C1c2ccccc2Cc2cc(O)ccc21`
active

// return assay outcome for CC1SC(c2ccc(Cl)cc2)N2C(=O)C(C)SC(c3ccc(Cl)cc3)N2C1=O (stereo unspecified)
active

// return assay outcome for `O=S(=O)(OCC#CCOS(=O)(=O)c1ccc(Cl)c(Cl)c1)c1ccc(Cl)c(Cl)c1`
inactive

// return assay outcome for `CC#CC#C/C=C1/C=CC(=O)O1`
active

// return assay outcome for `Cc1ccccc1NC(=O)CSC(N)=O`
inactive

// return assay outcome for `CC1=C(C)C1[N+](=O)[O-]`
active

// return assay outcome for `NC(=S)Nc1cccc(C(F)(F)F)c1`
active

// return assay outcome for COC(=O)C1(C)CC2C(C)(CCC3(C)C4=CC=C5C(=CC(=O)C(O)=C5C)C4(C)CCC23C)CC1O (stereo unspecified)
active

// return assay outcome for `CC1(C)[C@@H]2CC[C@]1(C)[C@@H](OC(=O)CSC#N)C2`
active

// return assay outcome for CSC(=S)CC(O)[C@@H]1CC2c3ccccc3C1c1ccccc12 (stereo partly specified)
active

// return assay outcome for `CCCCN(C)N=Nc1c(C(N)=O)n[nH]c1C(C)C`
active
